- System: P388;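 note: compound exposure lasted 48 hours before growth was measured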
- experimentalProtocol: cells
- Assay type: functional
- particulars: Mus musculus
Calls of active or inactive are those of the source. Cut-off read from the data, not from the text of the source: active = GI50 up to about 1.1 µM and inactive = higher.
Outcomes: True (active), False (inactive)

[[record]]
molecule = "CC(=O)OC1C=C(C=O)C(O)(C=O)C2(C)CCCC(C)(C)C12 (stereo not given)"
grouplabel = "True"

[[record]]
molecule = "OC[C@H]1O[C@@H](n2cnc3c(S)ncnc32)[C@H](O)[C@@H]1O"
grouplabel = "False"

[[record]]
molecule = "COC(=O)[C@@H](O)[C@](O)(CCC(C)C)C(=O)O[C@@H]1C(OC)=C[C@]23CCCN2CCc2cc4c(cc2[C@H]13)OCO4"
grouplabel = "True"

[[record]]
molecule = "CC(C)=CCc1c(O)ccc2ccc(=O)oc12"
grouplabel = "False"

[[record]]
molecule = "N/C(=N\\O)N/N=C\\c1ccccc1O"
grouplabel = "False"

